Here, each record is paired with measured Kd data.
Sequence of the target: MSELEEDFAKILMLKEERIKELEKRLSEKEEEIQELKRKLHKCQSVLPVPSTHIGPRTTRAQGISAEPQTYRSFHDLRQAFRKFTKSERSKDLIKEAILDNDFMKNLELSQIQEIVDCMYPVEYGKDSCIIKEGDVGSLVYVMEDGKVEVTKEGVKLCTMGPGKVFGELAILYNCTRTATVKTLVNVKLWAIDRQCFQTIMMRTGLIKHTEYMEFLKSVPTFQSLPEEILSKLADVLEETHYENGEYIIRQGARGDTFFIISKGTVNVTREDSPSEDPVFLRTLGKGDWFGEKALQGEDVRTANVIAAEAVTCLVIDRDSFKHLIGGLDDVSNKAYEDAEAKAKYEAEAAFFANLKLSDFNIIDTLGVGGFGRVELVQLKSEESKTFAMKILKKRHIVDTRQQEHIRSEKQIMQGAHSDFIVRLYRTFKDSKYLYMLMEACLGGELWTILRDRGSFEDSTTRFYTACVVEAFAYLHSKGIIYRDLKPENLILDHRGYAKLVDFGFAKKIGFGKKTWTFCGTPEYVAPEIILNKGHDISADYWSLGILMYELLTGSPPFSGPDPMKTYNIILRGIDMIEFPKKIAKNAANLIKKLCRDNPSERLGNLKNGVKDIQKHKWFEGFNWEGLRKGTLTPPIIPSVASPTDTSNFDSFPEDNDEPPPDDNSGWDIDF
The source made the active and inactive calls.

{"COMPOUND": "COc1cc(OC)c(/C=C/S(=O)(=O)Cc2ccc(OC)c(NCC(=O)O)c2)c(OC)c1 [RIGOSERTIB]", "Kd": "> 30 µM (inactive)"}
{"COMPOUND": "O=c1sn(-c2cccc3ccccc23)c(=O)n1Cc1ccccc1 [TIDEGLUSIB]", "Kd": "> 30 µM (inactive)"}
{"COMPOUND": "CNS(=O)(=O)Nc1nccc(Cc2c(C)c3ccc(Oc4ncccn4)cc3oc2=O)c1F [AVUTOMETINIB]", "Kd": "> 30 µM (inactive)"}

Alright, here's another compound for you.
Problem: // returns reported Kd for input Cn1cc(-c2ccc3nnc(C(F)(F)c4ccc5ncccc5c4)n3n2)cn1 [JNJ-38877605]
Result: > 30 µM (inactive)
